Tested on: ESO51 (Esophageal Adenocarcinoma)
Test: combination Emax (second highest fraction inhibited in the dose matrix, 72 h); higher = more inhibition; extreme values may be limits of the assay
Record form. Attribute: combination Emax. Fill in for each entry.

So, Cn1cnc2c(F)c(Nc3ccc(Br)cc3Cl)c(C(=O)NOCCO)cc21 [Selumetinib] + CC(C)n1c(=O)n(C)c2cnc3cc(F)c(-c4ccc(OCCCN5CCCCC5)nc4)cc3c21 [AZD1390] (first compound max 10 µM, 7x7, partner max 0.3 µM) ? Its combination Emax was 0.434

combination Emax recorded for this molecule, NC1(C(=O)N[C@@H](CCO)c2ccc(Cl)cc2)CCN(c2ncnc3[nH]ccc23)CC1 [Capivasertib] + Cn1cnc2c(F)c(Nc3ccc(Br)cc3Cl)c(C(=O)NOCCO)cc21 [Selumetinib] (first compound max 10 µM, 7x7, partner max 10 µM) , is 0.624

Sample CS(=O)(=O)CCNCc1ccc(-c2ccc3ncnc(Nc4ccc(OCc5cccc(F)c5)c(Cl)c4)c3c2)o1 [Lapatinib] + C[C@@H](Oc1cc(-c2cnn(C3CCNCC3)c2)cnc1N)c1c(Cl)ccc(F)c1Cl [Crizotinib] (first compound max 10 µM, 7x7, partner max 10 µM) ; combination Emax observed: 0.997

Cn1cnc2c(F)c(Nc3ccc(Br)cc3Cl)c(C(=O)NOCCO)cc21 [Selumetinib] + C=CCn1c(=O)c2cnc(Nc3ccc(N4CCN(C)CC4)cc3)nc2n1-c1cccc(C(C)(C)O)n1 [AZD1775] (first compound max 10 µM, partner max 1 µM) has a reported combination Emax of 0.681

Sure, the documented combination Emax for CN(CCO)CC[C@H](CSc1ccccc1)Nc1ccc(S(=O)(=O)NC(=O)c2ccc(N3CCC([C@@H](O)c4ccccc4-c4ccc(Cl)cc4)CC3)cc2)cc1S(=O)(=O)C(F)(F)F [AZD4320] + CCN(CCO)CCCOc1ccc2c(Nc3cc(CC(=O)Nc4cccc(F)c4)[nH]n3)ncnc2c1 [AZD2811] (first compound max 1 µM, 7x7, partner max 1 µM) is 0.233

Record summary for Cc1nc(Nc2ncc(C(=O)Nc3c(C)cccc3Cl)s2)cc(N2CCN(CCO)CC2)n1 [Dasatinib] + CC(=O)Nc1cccc(-n2c(=O)n(C3CC3)c(=O)c3c(Nc4ccc(I)cc4F)n(C)c(=O)c(C)c32)c1 [Trametinib] (first compound max 2 µM, 7x7, partner max 1 µM) : reported combination Emax = 0.949

Measured combination Emax, C=CCn1c(=O)c2cnc(Nc3ccc(N4CCN(C)CC4)cc3)nc2n1-c1cccc(C(C)(C)O)n1 [AZD1775] + O=C(c1cc(Cc2n[nH]c(=O)c3ccccc23)ccc1F)N1CCN(C(=O)C2CC2)CC1 [Olaparib] (first compound max 1 µM, partner max 10 µM) : 0.455

Cited source: the supplement of paper PMC11061612
